Sequence of the target: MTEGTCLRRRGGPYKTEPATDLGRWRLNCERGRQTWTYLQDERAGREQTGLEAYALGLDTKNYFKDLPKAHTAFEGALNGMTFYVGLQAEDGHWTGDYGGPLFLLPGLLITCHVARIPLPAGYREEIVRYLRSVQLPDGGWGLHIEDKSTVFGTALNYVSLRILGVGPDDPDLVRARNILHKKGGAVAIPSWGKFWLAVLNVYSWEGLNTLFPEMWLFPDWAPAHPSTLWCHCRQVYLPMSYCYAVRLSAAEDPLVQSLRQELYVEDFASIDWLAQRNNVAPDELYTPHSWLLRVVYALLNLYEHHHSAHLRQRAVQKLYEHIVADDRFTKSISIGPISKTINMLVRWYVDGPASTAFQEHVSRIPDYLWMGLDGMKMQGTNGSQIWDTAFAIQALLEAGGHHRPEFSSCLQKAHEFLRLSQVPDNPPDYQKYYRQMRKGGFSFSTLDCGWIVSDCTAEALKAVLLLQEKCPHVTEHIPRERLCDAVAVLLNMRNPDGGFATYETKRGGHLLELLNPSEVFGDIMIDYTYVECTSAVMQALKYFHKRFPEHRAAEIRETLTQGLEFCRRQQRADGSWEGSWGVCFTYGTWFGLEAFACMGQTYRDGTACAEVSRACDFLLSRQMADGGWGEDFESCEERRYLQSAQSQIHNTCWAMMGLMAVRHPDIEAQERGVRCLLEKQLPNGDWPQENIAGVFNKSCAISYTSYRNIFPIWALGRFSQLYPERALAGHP
experimentalEndpoint: IC50 (µM)
Numbers only, in µM.

-- ask Please list IC50 recorded for the compound CC(C)CCC[C@@H](C)[C@H]1CCC2=C(CCCN(C)C)CCC[C@@]21C
-- reply 4.5
